Could you please report measured pIC50 for the items listed next?
- measuredTarget: UniProt P00760
- Sequence (P00760 24-246): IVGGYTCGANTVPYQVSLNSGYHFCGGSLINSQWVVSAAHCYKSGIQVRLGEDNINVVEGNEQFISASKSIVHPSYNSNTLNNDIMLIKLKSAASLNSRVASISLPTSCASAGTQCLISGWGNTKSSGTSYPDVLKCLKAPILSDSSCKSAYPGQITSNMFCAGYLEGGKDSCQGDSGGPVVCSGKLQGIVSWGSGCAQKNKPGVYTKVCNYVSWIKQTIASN
- procedureText: Trypsin inhibitory activity of peptides (BApNA hydrolysis, OD405; IC50, Ki, residual activity)
- Format: biochemical
- details: trypsin 50 nM, BApNA 1.22 mM; read-out: IC50
- Protocol: The substrates N-succinyl-Ala-Ala-Pro-Phe-p-nitroaniline (AAPFpNA), Nα—Benzoyl-L-arginine-4-nitroaniline hydrochloride (BApNA) and N-succinyl-[…] (AAApNA) are used in competitive binding reaction to determine the inhibitory activities against α-chymotrypsin, bovine trypsin, and porcine pancreatic elastase, respectively. […] The concentration of the peptide was measured using optical density (OD) at 280 nm. […]
pIC50: −log10 of the molar value. Bridge positions count the residues as written; N and C are the ends. Peptide text beside a SMILES is read from it.

Entry CC[C@H](C)[C@@H]1NC(=O)[C@H](CO)NC(=O)[C@H](CCCNC(=N)N)NC(=O)[C@H]([C@@H](C)O)NC(=O)[C@H](C)NC(=O)[C@H](CCCNC(=N)N)NC(=O)CNC(=O)[C@@H](N)CSSC[C@@H](C(=O)N[C@@H](Cc2ccccc2)C(=O)O)NC(=O)[C@H]([C@@H](C)CC)NC(=O)[C@@H]2CCCN2C(=O)[C@H](C)NC1=O [BT20] (H-CGRATRSIAPICF-OH; disulfide 1-12 (inferred); N-terminus and C-terminus assumed) has what pIC50?
< 4.30

Input CC[C@H](C)[C@@H]1NC(=O)[C@H](CO)NC(=O)[C@H](CCCCN)NC(=O)[C@H]([C@@H](C)O)NC(=O)[C@H](C)NC(=O)[C@H](CCCNC(=N)N)NC(=O)CNC(=O)[C@@H](N)CSSC[C@@H](C(=O)O)NC(=O)[C@H](CCCNC(=N)N)NC(=O)[C@H](C)NC(=O)[C@H](CCC(N)=O)NC(=O)[C@@H]2CCCN2C(=O)[C@@H]2CCCN2C1=O [BT34] (H-CGRATKSIPPQARC-OH; disulfide 1-14)
< 4.30

Input CC[C@H](C)[C@@H]1NC(=O)[C@@H]2CCCN2C(=O)[C@@H]2CCCN2C(=O)[C@H]([C@@H](C)CC)NC(=O)[C@H](CO)NC(=O)[C@H](CCCCN)NC(=O)[C@H]([C@@H](C)O)NC(=O)[C@H](C)NC(=O)[C@H](CCCNC(=N)N)NC(=O)[C@H](CCCCN)NC(=O)[C@@H](N)CSSC[C@@H](C(=O)N[C@@H](Cc2ccccc2)C(=O)O)NC1=O [BT77] (H-CKRATKSIPPICF-OH; disulfide 1-12; N-terminus and C-terminus assumed)
7.40
